tested-system: UniProt:P37173
Sequence (P37173 whole entry, looked up): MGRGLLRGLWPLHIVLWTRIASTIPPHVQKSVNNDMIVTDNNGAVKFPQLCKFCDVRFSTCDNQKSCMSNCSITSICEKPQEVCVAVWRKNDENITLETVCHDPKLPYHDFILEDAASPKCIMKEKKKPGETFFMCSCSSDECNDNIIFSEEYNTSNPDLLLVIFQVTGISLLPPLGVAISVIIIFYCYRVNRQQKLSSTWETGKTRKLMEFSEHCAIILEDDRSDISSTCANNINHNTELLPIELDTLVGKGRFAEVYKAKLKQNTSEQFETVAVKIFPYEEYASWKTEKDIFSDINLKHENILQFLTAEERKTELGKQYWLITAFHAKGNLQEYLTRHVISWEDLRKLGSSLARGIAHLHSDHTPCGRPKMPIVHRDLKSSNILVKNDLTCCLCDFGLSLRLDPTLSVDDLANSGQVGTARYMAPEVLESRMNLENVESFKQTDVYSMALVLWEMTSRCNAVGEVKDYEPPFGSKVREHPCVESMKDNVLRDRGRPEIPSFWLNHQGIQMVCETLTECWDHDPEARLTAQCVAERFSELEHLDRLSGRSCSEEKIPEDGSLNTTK
pIC50: −log10 of the molar value.
metric-name: pIC50

Request: # lookup: pIC50 of CN1CC[C@H](c2c(O)cc(O)c3c(=O)cc(-c4ccccc4Cl)oc23)[C@H](O)C1
Result: < 5.00

---

tested-system: NEK9 (human) (UniProt Q8TD19)
Sequence (Q8TD19 whole entry, looked up): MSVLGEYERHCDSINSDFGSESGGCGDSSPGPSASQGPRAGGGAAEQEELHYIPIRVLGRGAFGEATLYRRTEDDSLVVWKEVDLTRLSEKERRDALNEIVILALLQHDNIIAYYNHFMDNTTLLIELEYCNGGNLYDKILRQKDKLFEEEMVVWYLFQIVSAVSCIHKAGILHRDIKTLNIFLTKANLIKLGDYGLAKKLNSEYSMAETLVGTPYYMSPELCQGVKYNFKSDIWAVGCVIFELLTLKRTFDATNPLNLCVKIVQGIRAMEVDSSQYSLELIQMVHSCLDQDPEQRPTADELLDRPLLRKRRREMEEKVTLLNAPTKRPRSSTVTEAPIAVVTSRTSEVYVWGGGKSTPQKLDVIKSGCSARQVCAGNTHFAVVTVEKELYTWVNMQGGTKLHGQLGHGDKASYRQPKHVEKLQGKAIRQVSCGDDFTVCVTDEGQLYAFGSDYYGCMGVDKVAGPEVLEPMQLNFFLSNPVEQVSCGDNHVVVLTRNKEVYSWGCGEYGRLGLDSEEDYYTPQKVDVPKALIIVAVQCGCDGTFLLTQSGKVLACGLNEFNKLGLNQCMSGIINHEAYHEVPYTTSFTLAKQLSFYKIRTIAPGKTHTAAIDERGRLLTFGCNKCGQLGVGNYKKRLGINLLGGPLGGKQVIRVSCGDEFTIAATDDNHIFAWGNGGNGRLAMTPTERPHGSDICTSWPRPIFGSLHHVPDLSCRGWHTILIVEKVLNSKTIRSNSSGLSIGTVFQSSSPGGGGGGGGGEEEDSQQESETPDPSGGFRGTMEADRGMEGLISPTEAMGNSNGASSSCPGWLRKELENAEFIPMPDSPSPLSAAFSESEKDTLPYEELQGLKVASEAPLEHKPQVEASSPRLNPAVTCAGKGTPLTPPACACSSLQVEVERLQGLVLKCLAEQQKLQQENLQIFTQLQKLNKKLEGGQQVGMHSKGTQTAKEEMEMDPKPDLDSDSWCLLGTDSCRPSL
metric-name: IC50

Request: Under NEK9 (human) (UniProt Q8TD19): IC50 value of CN1CC[C@H](c2c(O)cc(O)c3c(=O)cc(-c4ccccc4Cl)oc23)[C@H](O)C1 ?
Result: > 10 µM

---

tested-system: FGR (human) (UniProt P09769)
Sequence (P09769 whole entry, looked up): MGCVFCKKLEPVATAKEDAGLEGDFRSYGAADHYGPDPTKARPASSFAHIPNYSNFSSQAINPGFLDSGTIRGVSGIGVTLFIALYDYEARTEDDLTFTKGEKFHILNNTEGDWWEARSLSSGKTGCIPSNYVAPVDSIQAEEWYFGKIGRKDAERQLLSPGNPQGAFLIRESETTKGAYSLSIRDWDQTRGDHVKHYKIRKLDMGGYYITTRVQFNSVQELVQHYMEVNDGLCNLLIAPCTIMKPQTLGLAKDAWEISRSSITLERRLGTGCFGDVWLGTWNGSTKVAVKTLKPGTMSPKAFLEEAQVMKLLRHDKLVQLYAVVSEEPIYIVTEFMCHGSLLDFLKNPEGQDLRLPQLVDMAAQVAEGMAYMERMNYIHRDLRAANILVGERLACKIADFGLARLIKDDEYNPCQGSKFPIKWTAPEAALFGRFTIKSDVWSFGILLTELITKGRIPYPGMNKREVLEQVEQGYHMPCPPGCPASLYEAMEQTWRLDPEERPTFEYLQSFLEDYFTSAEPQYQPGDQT
pIC50: −log10 of the molar value.
metric-name: pIC50

Request: # lookup: pIC50 of CN1CC[C@H](c2c(O)cc(O)c3c(=O)cc(-c4ccccc4Cl)oc23)[C@H](O)C1
Result: < 5.00
